# STUDY_SYSTEM: H250A-NDM-1 (Klebsiella pneumoniae, UniProt C7C422, H250A)
# Sequence (C7C422 29-270 H250A): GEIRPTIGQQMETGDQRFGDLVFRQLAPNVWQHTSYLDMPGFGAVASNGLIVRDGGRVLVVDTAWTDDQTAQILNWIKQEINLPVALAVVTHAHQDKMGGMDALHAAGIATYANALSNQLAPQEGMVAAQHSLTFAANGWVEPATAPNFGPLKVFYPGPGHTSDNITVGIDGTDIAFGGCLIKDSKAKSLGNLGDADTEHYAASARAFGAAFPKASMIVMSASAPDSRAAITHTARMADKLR
# METHOD: fluorescence-quenching assay, H250A
EXPERIMENTAL_ENDPOINT: Kd (µM)
Note: unit µM is implicit; provide only the numeric part.

Provide value of Kd for this record tested with H250A-NDM-1 (Klebsiella pneumoniae, UniProt C7C422, H250A): COc1ccc2c3c(cccc13)C(=O)N(OS(=O)(=O)c1ccc(C)cc1)C2=O
4.65

* * *

# STUDY_SYSTEM: NDM-1 (Klebsiella pneumoniae, UniProt C7C422)
# Construct: made in house; host or cells: E. coli BL21 (DE3)
# Sequence (C7C422 29-270 limits assumed): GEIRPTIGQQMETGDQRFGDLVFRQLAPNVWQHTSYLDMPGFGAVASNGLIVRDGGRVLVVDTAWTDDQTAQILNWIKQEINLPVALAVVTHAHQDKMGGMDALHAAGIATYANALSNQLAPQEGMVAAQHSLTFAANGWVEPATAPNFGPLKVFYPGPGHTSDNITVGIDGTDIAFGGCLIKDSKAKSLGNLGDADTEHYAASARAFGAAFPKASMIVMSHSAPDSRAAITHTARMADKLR
# METHOD: nitrocefin assay (hydrolysis by purified NDM-1)
# Format: biochemical
# RUN_PARAMETERS: IC50, nitrocefin hydrolysis, OD492nm; mean ± SD, n = 3
# Method: The inhibitory activities of 18 compounds against NDM-1 were tested by nitrocefin assay. The purified NDM-1 was incubated with drugs and nitrocefin, then the absorbance values of OD492nm were determined as the nitrocefin hydrolysis. […] collected for the subsequent protein purification as described by Liu et.al. […] further determination of the inhibitory effect of ZINC05683641 on the hydrolysis activities of NDM-1. The initial identifying of NDM-1 inhibitory activities was carried out on the […]
Some compounds, each annotated with its measured IC50.

COMPOUND	STUDY_SYSTEM	IC50
Cc1ccc(N2C(=O)c3ccc(C(=O)c4ccc5c(c4)C(=O)N(c4ccc(C)cc4C)C5=O)cc3C2=O)c(C)c1 [ZINC02079077]	NDM-1 (Klebsiella pneumoniae, UniProt C7C422)	108 µM
O=C1c2cccc3c(Br)ccc(c23)C(=O)N1OS(=O)(=O)c1ccc(Cl)cc1 [ZINC25558273]	NDM-1 (Klebsiella pneumoniae, UniProt C7C422)	> 300 µM
Cc1ccc(-c2cc(C(=O)Oc3ccc([N+](=O)[O-])cc3)c3cc(C)ccc3n2)cc1 [ZINC02577071]	NDM-1 (Klebsiella pneumoniae, UniProt C7C422)	> 300 µM
Cc1ccc(N2C(=O)c3ccc(C(=O)c4ccc5c(c4)C(=O)N(c4ccc(C)cc4C)C5=O)cc3C2=O)c(C)c1 [ZINC00639379]	NDM-1 (Klebsiella pneumoniae, UniProt C7C422)	207 µM
O=C1c2cccc3cccc(c23)C(=O)N1OS(=O)(=O)c1ccc(Cl)cc1 [ZINC02953923]	NDM-1 (Klebsiella pneumoniae, UniProt C7C422)	> 300 µM

Provide value of IC50 for this record tested with NDM-1 (Klebsiella pneumoniae, UniProt C7C422): O=c1oc2cc(OCc3ccc(Cl)c(Cl)c3)ccc2cc1-c1nc2ccccc2s1 [ZINC01799114]
> 300 µM

Try C[C@H]1CCc2cc(F)cc3c(=O)c(C(=O)NCc4ccccc4Cl)c(O)n1c23 [ZINC06166781] next.
> 300 µM

Try Cc1ccc(S(=O)(=O)Nc2cccc3cccc(NS(=O)(=O)c4ccc(C)cc4)c23)cc1 [ZINC03198432] next.
> 300 µM

Try O=C1C(=Cc2cccc(Cl)c2)CN(Cc2ccccc2)CC1=Cc1cccc(Cl)c1 [ZINC20115378] next.
> 300 µM

Try Cc1ccc(S(=O)(=O)ON2C(=O)c3cccc4cccc(c34)C2=O)cc1 [ZINC02938448] next.
> 300 µM

Try COc1ccc2c3c(cccc13)C(=O)N(OS(=O)(=O)c1ccc(C)cc1)C2=O [ZINC05683641] next.
13.6 µM

Try O=[N+]([O-])c1cccc(S(=O)(=O)N2CN(c3ccc4ccccc4c3)c3nc4ccccc4nc32)c1 [ZINC12524283] next.
> 300 µM

Try Cc1ccc(S(=O)(=O)N[C@@H](C(=O)Oc2ccc3c4c(c(=O)oc3c2)CCCC4)c2ccccc2)cc1 [ZINC11865709] next.
> 300 µM
